- Protocol description: growth inhibition, single agents and combos, HTB85, cell-based, BGB or cisplatin IC20 combos, synergistic combos for chromothripsis tumors (AID 1671453);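 also: cells exposed for 96 hours before readout; 0% = vehicle DMSO and 100% = high DMSO killing control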
- Condition info: HTB85 osteosarcoma cells, drug combinations, measured here: with BGB IC20, at 0.5 µM, stronger effect = higher value
Property: inhibition (%)
Number only, in %; omit the unit.

Item under review: CN(C)c1ccc(C(=O)NCCCCCCC(=O)NO)cc1 . Reported inhibition?
18.8

What would you report for O=C(/C=C/c1ccc(CN(CCO)CCc2c[nH]c3ccccc23)cc1)NO ?
98.7

What would you report for Nc1ncnc2c1c(-c1cnc3[nH]ccc3c1)nn2C1CCCC1 ?
55.4

What would you report for CN(C)CCN1C(=O)c2cccc3cc(N)cc(c23)C1=O ?
-26.5

What would you report for O=c1[nH]c([C@@H]2CCCN2)nc2c1oc1ccc(Cl)cc12 ?
-9.31

What would you report for Nc1ccccc1NC(=O)c1ccc(CNc2nccc(-c3cccnc3)n2)cc1 ?
20.6

What would you report for Cc1ccc2nc(NCCN)c3ncc(C)n3c2c1 ?
19.2

What would you report for Cc1ccc([N+](=O)[O-])cc1S(=O)(=O)N(C)/N=C/c1cnc2ccc(Br)cn12 ?
92.6

What would you report for COc1ccc(C(=O)CC2(O)C(=O)Nc3c(Cl)ccc(Cl)c32)cc1 (stereo unspecified) ?
33.1

What would you report for CN(C)Cc1c(C(=O)NCCOc2ccc(C(=O)NO)cc2)oc2ccccc12 ?
87.4

What would you report for Cc1cn([C@@H]2O[C@H](CO)[C@@H](O)[C@@H]2F)c(=O)[nH]c1=O ?
40.2

meta.source: PubChem BioAssay
